# RUN_DESCRIPTION: gradient 5% acetonitrile 3 min, to 50% in 2 min, to 85% in 15 min, held 3 min, 100 µL/min
# RUN_PARAMETERS: column: Zorbax Extend-C18 2.1 x 50 mm; eluents: water / acetonitrile, 0.1% formic acid
MEASURED_QUANTITY: RP-LC retention time (s)
Report as a plain number; the unit s is understood.

Record excerpt, results attached:
CC(NC(=O)c1ccc(F)c(F)c1)C(=O)Nc1nc2ccccc2[nH]1 (centres undefined)    655
Cc1ccc(Cn2c(=O)c(SCC(=O)NCC3CCCO3)nc3ccccc32)cc1 (centres undefined)    889
CCOC(=O)C1CCC(CNC(=O)Nc2cccc(-c3nnc(-c4ccccc4)o3)c2)CC1 (centres undefined)    975
Cc1cc(NC(=O)C(=O)c2ccc[nH]2)ccc1Br    1040
CCc1ccc(N2C(=O)CN(S(=O)(=O)c3ccccc3)CC2(C)C(=O)NC2CCCC2)cc1 (centres undefined)    821

Which RP-LC retention time value is on record for COc1ccc(NC(=O)C2c3cc(OC)c(OC)cc3C(=O)N3CCc4ccccc4C23)cc1OC (centres undefined) ?
744

I'd like to know its RP-LC retention time. The molecule in question is Cc1nc(-c2cn(C)c3ncccc23)sc1C(=O)Nc1ccc(F)cc1Cl
1050

Given the molecule COCCc1noc(C2CN(S(=O)(=O)Cc3ccccc3)C2)n1 , what is its reported RP-LC retention time?
780

What measured RP-LC retention time goes with COc1ccc(CNC(=O)c2nnc(-c3ccc(S(=O)(=O)N4CCOCC4)cc3)o2)cc1 ?
829

Taken from the METLIN SMRT retention time set (Domingo-Almenara et al. 2019).
